Values were extracted from PubChem BioAssay AID248.

Test system: L1210 leukemia ip in BDF1 mice, survival T/C
TEST DETAILS: NCI In Vivo Anticancer Drug Screen. Data for tumor model L1210 Leukemia (intraperitoneal) in B6D2F1 (BDF1) mice
TEST SETTINGS: endpoint: mean survival time; dose: 400.0 mg/kg/injection; schedule: Q04DX003 (ip); vehicle: Klucel (hydroxypropylcellulose) (HPC)
Toxic doses and inconclusive results are not listed. Rule as the data show it: active = T/C of 150% or more; inactive = T/C below 125%.
Outcomes: TRUE (active), FALSE (inactive)

1. NC(=O)c1[nH]cnc1/N=N/N(CCCl)Cc1ccccc1 : TRUE
2. CCOC(=O)c1cnc(SC)nc1NCc1ccccc1Cl : FALSE
3. ClCCOCc1ccccc1 : FALSE
4. Cc1ccc(S(=O)(=O)N/N=C\c2cc(Cl)ccc2O)cc1 : FALSE
5. O=C1OC(=O)C2C3CCCCC3=C3CCCCC3C12 (centres undefined) : FALSE
6. CCC(/C=N/NC(N)=O)CC : FALSE
7. O=C1CC(c2cccc(S(=O)(=O)F)c2)=NN1c1ccc([N+](=O)[O-])cn1 : FALSE
8. CCOC(=O)c1c[nH]c2cc(Cl)ccc2c1=O : FALSE
9. O=C(O)CCC(=O)c1cccc([N+](=O)[O-])c1 : FALSE
10. O=C(c1ccccc1)C1CN(C2CCCCC2)C1c1ccccc1 (centres undefined) : FALSE
11. Cc1ccc(C)c(NC(=O)Oc2cc(C)c(Cl)cc2C(C)C)c1 : FALSE
12. COc1ccc(Br)cc1 : FALSE
13. CN=C(NC)SC : FALSE
14. CC1(C)N=C(N)N=C(N)N1c1ccc(CCCCc2ccc(S(=O)(=O)F)cc2Cl)c(Cl)c1 : FALSE
15. CCOC(=O)c1ccc(NC(=O)Sc2cccc(C)c2)cc1 : FALSE
16. CCCCCCCCCC(O)CCCCC (centres undefined) : FALSE
17. Cc1cc(Cl)ccc1NC(=O)c1ccccc1 : FALSE
18. O=S(Cc1ccc(Cl)cc1)c1ccc(Cl)cc1 (centres undefined) : FALSE
19. COC(=O)CCCCCCCC(=O)OCC#CC#CCOC(=O)CCCCCCCC(=O)OC : FALSE
20. O=c1[nH]nc2ccccn12 : FALSE
21. CCCCCCCCCCCCC#N : FALSE
22. COc1ccc(N=Cc2ccc(Cl)cc2)cc1C(F)(F)F : FALSE
23. O=C1/C(=C/c2ccco2)CC/C1=C\c1ccco1 : FALSE
24. C#CCOS(=O)OCCCCCCCCCC (centres undefined) (tested in a mixture with another compound) : FALSE
25. CCCCCCCCNC1=C(OC)C(=O)C(NCCCCCCCC)=C(OC)C1=O : FALSE
26. ClC1=C(Cl)C(Cl)(Cl)C(Cl)(Cl)C1(Cl)Cl : FALSE
27. CS(=O)(=O)OC1CCCCCCC1OS(C)(=O)=O (centres undefined) : FALSE
28. NC(=O)c1c(Cl)cccc1Cl : FALSE
29. Cc1ccc(Cl)cc1NC(=O)c1ccc(Cl)cc1Cl : FALSE
30. COC(=O)c1c(OC)ccc2c1CC1C3Nc4ccccc4C3CCN1C2 (centres undefined) : FALSE
31. CC(=O)Nc1ccc(NCN2C(=O)c3ccccc3C2=O)cc1 : FALSE
32. COc1ccccc1NC(=O)Nc1cccc(C)c1C : FALSE
33. CC1(C(=O)N2c3ccccc3C=CC2C#N)CC2C=CC1C2 (centres undefined) : FALSE
34. CC(=O)Nc1ccc(Cl)c(Cl)c1 : FALSE

* * *

Test system: L1210 leukemia ip in BDF1 mice, survival T/C
TEST DETAILS: NCI In Vivo Anticancer Drug Screen. Data for tumor model L1210 Leukemia (intraperitoneal) in B6D2F1 (BDF1) mice
TEST SETTINGS: endpoint: mean survival time; dose: 200.0 mg/kg/injection; schedule: Q01DX009 (ip); vehicle: saline with Tween-80; higher = longer survival
Experimental: The antitumor activity of compounds was measured in mice bearing transplantable tumors. Survival or tumor size were measured and the results are expressed as the measurement made in the treated group (T) divided by the measurement made in the vehicle treated control group (C). The tumor model used in this assay is L1210 Leukemia (intraperitoneal) in B6D2F1 (BDF1) mice
Toxic doses and inconclusive results are not listed.
Below, each of the molecules is paired with its reported T/C value.
PROPERTY LABEL: T/C

1. O=C(CNC(=O)Nc1ccc(Cl)c(Cl)c1)N/N=C/c1cccc(F)c1 : 89 % of control
2. CC(C)CC(NC(=O)OCc1ccccc1)C(=O)O (stereo not drawn) : 97 % of control
3. O=C(Cn1ccc(O)cc1=O)c1ccc(Cl)s1 : 90 % of control

* * *

System: L1210 leukemia ip in BDF1 mice, survival T/C
TEST DETAILS: NCI In Vivo Anticancer Drug Screen. Data for tumor model L1210 Leukemia (intraperitoneal) in B6D2F1 (BDF1) mice
TEST SETTINGS: endpoint: mean survival time; dose: 100.0 mg/kg/injection; schedule: Q01DX001 (ip); vehicle: saline; higher = longer survival
Inconclusive results and toxic doses are left out.
The entries below come with measured T/C values attached.
PROPERTY LABEL: T/C

1. NC(=O)NOCc1cscn1 : 95 % of control
2. CN(C)c1ccc(C=Nc2ccccc2O)cc1 : 107 % of control
3. C/C=C(\Br)C(=O)Nc1ccc(OCC)cc1 : 100 % of control
4. Cc1cc([N+](=O)[O-])ccc1O : 100 % of control
5. COc1cc(/C=N/Nc2nnc(N/N=C/c3cc(I)c(O)c(OC)c3)c3ccccc23)cc(I)c1O : 95 % of control
6. CCCCc1nc2c(c(=O)n(C)c(=O)n2C)n1C : 96 % of control
7. CCCn1c(C)nc2c1C(=O)c1ccccc1C2=O : 94 % of control
8. O=C(N/N=C/C=C/c1ccccc1)[C@H](O)[C@@H](O)C(=O)N/N=C/C=C/c1ccccc1 : 92 % of control
9. C1=C(c2ccccc2)c2ccccc2CC1 : 102 % of control
10. CCOC(=O)N/N=C/c1ccc([N+](=O)[O-])cc1 : 94 % of control
11. CCN(CC)c1ccccc1S(=O)(=O)O : 104 % of control
12. OCCN1CCN(Cc2cccc3ccccc23)CC1 : 103 % of control
13. OCC1OC(n2c(Cl)nc3ccccc32)C(O)C1O (configuration not stated) : 97 % of control
14. CN(C)N=Nc1ccc(C(=O)NC(CCC(=O)NN)C(=O)NN)cc1 (configuration not stated) : 96 % of control
15. N#Cc1ccccc1C(=O)O : 95 % of control
16. Clc1cc2nc3[nH]c4ccccc4c3nc2cc1Cl : 97 % of control
17. NCC(O)C(O)C(O)C(O)CO (configuration not stated) : 103 % of control
18. C[S+]1CCCCC1 : 100 % of control
19. NC(Cc1cc(Br)c(O)c(Br)c1)C(=O)O (configuration not stated) : 97 % of control
20. COc1ccc(C(=O)C2=CC(=O)C(=O)C2)cc1OC : 98 % of control
21. CCCCC(=O)N/N=C/c1ccc(O)cc1O : 97 % of control
22. COc1cccc(CNCc2cccc(OC)c2O)c1O : 96 % of control
23. CC(C)=CCC(C)c1ccncc1 (configuration not stated) : 102 % of control
24. Brc1c(Br)c(Br)c(Br)c(Br)c1Br : 93 % of control
25. CNC(=O)C(c1ccccc1)C(O)(c1ccccc1)c1ccccc1 (configuration not stated) : 93 % of control
26. O=C(NC1CCCCC1)NS(=O)(=O)c1ccc2c(c1)CCC2 : 100 % of control
27. NC(=O)C1C(=O)OC2CCCCC21 (configuration not stated) : 92 % of control
28. O=C(O)c1c(O)c2cc(Br)ccc2oc1=O : 98 % of control
29. O=C(O)c1cccc(F)c1O : 97 % of control
30. COc1ccc(C=NC2C(O)OC(CO)C(O)C2O)cc1 (configuration not stated) : 106 % of control
31. CCOC(=O)c1[nH]c2c(OCC)nc(OCC)nc2c1Br : 112 % of control
32. CS(=O)(=O)OCCN(CCOS(C)(=O)=O)c1ccc(/C=N/Nc2ncnc3nc[nH]c23)cc1 : 107 % of control
